Origin of values: patent US7169789B2

experimental.system: human KDR (Homo sapiens, UniProt P35968)
Sequence (P35968 20-1356): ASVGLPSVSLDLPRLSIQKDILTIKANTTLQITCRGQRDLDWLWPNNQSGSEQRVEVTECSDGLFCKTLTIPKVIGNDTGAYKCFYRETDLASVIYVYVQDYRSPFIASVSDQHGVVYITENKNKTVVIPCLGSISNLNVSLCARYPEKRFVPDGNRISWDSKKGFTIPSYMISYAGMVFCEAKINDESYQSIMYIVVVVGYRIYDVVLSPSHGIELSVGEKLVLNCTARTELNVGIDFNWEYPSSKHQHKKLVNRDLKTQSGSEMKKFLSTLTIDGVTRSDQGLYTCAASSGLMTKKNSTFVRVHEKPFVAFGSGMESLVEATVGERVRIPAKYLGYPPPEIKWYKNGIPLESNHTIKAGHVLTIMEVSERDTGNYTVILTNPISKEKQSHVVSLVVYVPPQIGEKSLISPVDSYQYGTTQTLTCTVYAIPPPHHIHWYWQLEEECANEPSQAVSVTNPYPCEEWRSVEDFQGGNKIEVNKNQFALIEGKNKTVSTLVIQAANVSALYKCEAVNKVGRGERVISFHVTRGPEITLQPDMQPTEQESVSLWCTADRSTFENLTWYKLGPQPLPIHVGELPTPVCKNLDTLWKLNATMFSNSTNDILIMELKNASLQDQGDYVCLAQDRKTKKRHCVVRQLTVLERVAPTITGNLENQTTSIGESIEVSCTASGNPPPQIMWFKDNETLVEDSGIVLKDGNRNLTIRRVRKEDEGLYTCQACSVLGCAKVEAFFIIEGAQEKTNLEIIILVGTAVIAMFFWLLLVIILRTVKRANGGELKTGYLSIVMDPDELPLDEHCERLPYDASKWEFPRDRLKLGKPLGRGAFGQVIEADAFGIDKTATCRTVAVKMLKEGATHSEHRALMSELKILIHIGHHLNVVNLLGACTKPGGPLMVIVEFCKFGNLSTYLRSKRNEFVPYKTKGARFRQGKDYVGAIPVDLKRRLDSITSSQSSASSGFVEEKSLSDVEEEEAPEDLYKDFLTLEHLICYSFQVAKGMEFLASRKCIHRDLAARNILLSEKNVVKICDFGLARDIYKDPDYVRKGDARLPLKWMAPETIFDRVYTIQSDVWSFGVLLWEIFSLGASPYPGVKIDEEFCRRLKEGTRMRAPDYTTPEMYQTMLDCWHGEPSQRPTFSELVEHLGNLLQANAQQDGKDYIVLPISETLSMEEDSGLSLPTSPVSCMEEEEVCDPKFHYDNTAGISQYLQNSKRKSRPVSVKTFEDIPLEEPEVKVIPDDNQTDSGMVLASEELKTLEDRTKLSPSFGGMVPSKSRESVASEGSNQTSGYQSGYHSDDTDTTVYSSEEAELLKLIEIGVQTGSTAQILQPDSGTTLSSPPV
test.summary: Inhibitory activity against KDR phosphorylation by ELISA
cond: NIH 3T3 cells transfected with human KDR, VEGF 100 ng/ml
pIC50: −log10 of the molar value.
Label satisfied when pIC50 is at or above 9; anything below gets not satisfied.

(Q) // inclusive: pIC50 at least 9? input: CCCN(CC)C(=O)Nc1ccc(Oc2ncnc3cc(OC)c(OC)cc23)cc1Cl
(A) not satisfied

====

System: Human glioma cells GL07
test.summary: Antitumor effect on human glioma cells (GL07) transplanted into nude mice
Type: in vivo
cond: Mus musculus, Glioma cell, 216 h, GL07, oral, 20 mg/kg once a day for 9 days, read-out: TGIR, % (tumor growth inhibition rate)
Description: Antitumor Effect on Human Glioma Cells (GL07) Human glioma cells GL07 (obtained from Central Laboratories for Experimental Animals) were transplanted into nude mice. When the tumor volume became about 100 mm^3, the mice were grouped. In this case, grouping was carried out so that each group consisted of four mice and the average tumor volume was even among the groups. […]
Threshold check on inhibition in vivo at 20 mg/kg: at or above 30% gives class 1, strictly below gives class 0.

Completed entries (count: 3):
COc1cc2ncnc(Oc3ccc(NC(=O)Nc4ccc(F)cc4)cc3)c2cc1OC = class 1
COc1cc2ncnc(Oc3ccc(NC(=O)NCc4ccc(F)cc4F)c(F)c3)c2cc1OC = class 0
COc1cc2c(Oc3ccc(NC(=O)N(C)C)c(Cl)c3)ncnc2cc1OCCCN(C)CCO = class 0

(Q) Identify whether the reported inhibition in vivo at 20 mg/kg of the following compound is 30% or greater: CCCCNC(=O)Nc1ccc(Oc2ncnc3cc(OC)c(OC)cc23)cc1F
(A) class 1

(Q) Consider next the compound CCCNC(=O)Nc1ccc(Oc2ccnc3cc(OCCN(CCO)CCO)c(OC)cc23)cc1Cl in the same way.
(A) class 0

(Q) Thanks! And COc1cc2c(Oc3ccc(NC(=O)Nc4ccc(F)cc4F)c(Cl)c3)ccnc2cc1OCc1ccncc1 ?
(A) class 1

(Q) How about this compound: COc1cc2ncnc(Oc3ccc(NC(=O)Nc4ccc(F)cc4)cc3C)c2cc1OC
(A) class 1

====

experimental.system: human KDR (Homo sapiens)
test.summary: Inhibitory activity against KDR phosphorylation by ELISA
cond: NIH 3T3 cells transfected with human KDR, VEGF 100 ng/ml
IC50 values for the compounds below.
Entry rule: numbers only, all in nM.

CCCNC(=O)Nc1ccc(Oc2ncnc3cc(OC)c(OC)cc23)cc1C = 105
CCCNC(=O)Nc1ccc(Oc2ccnc3cc(OCCCCn4ccnc4)c(OC)cc23)cc1Cl = 0.9
CCCNC(=O)Nc1ccc(Oc2ccnc3cc(OCCN4CCOCC4)c(OC)cc23)cc1Cl = 1.6
CCNC(=O)Nc1ccc(Oc2ncnc3cc(OC)c(OC)cc23)cc1 = 150
COc1cc2c(Oc3ccc(NC(=O)Nc4ccc(F)cc4F)c(Cl)c3)ncnc2cc1OCCN1CCOCC1 = 1

(Q) Look up IC50: CCCNC(=O)Nc1ccc(Oc2ccnc3cc(OCc4ccccn4)c(OC)cc23)cc1Cl
(A) 14

====

experimental.system: human KDR (Homo sapiens)
test.summary: Inhibitory activity against KDR phosphorylation by ELISA
cond: NIH 3T3 cells transfected with human KDR, VEGF 100 ng/ml
assay.endpoint: IC50 (nM)
Dear colleague, please return just the value in nM, with no unit written.

// solved cases for IC50 follow
CCCNC(=O)Nc1ccc(Oc2ccnc3cc(OCCCO)c(OC)cc23)cc1Cl [Example 147] = 1
CCCNC(=O)Nc1ccc(Oc2ncnc3cc(OCCCCN4CCOCC4)c(OC)cc23)cc1Cl [Example 127] = 1.1
CCCNC(=O)Nc1ccc(Oc2ncnc3cc(OCCCN4CCOCC4)c(OC)cc23)cc1Cl [Example 119] = 3.6

(Q) Which IC50 value belongs to CCCNC(=O)Nc1ccc(Oc2ncnc3cc(OCCO)c(OC)cc23)cc1Cl [Example 122] ?
(A) 5.8

(Q) Now the same for COc1ccccc1NC(=O)Nc1ccc(Oc2ncnc3cc(OC)c(OC)cc23)cc1C [Example 106]
(A) 1.5

(Q) Moving on to the next compound: COc1ccccc1NC(=O)Nc1ccc(Oc2ncnc3cc(OC)c(OC)cc23)cc1F [Example 96]
(A) 0.4
